# Measured target: recombinant human KLK5 (human) (UniProt Q9Y337)
# Sequence (Q9Y337 67-293): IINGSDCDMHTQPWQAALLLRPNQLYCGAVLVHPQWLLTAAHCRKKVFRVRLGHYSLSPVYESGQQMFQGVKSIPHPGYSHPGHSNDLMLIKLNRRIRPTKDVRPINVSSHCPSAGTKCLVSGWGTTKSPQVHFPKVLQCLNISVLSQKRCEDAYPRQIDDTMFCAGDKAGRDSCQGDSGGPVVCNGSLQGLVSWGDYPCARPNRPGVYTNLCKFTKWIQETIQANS
# Protocol description: Kiapp as the y-intercept of the line of IC50 (nM) versus KLK5 (nM), Z-VPR-pNA

Binder	Ki [nM]
2-3F4 (antibody, V domains shown) VH: QSVEESRGGLIKPTDTLTLTCTASGFSLSNYGVSWVRQAPGNGLEYIGFIGYGGSTYYASWAKSRSTITRNTNLNTVTLQMTSLTAADTATYFCARLCGVDCADALDSWGPGTLVTVSS VL: AYYMTQTPASVEVAVGGTVTIKCQASEDIGSYCSWYQQKPGQPPKLLIYDASDLASGVPSRFKGSGSGTDFTLTISGVQCDDAATYYCQQDYTGNNVDNTFGGGSEVVVK	0.939
8B7 (antibody, V domains shown) VH: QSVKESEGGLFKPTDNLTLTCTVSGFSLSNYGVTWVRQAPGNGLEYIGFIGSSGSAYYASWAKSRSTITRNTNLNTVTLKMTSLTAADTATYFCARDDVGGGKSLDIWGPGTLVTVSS VL: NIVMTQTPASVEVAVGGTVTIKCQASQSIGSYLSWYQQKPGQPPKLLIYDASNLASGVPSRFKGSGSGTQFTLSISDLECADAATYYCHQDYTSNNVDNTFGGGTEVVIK	0.264
9H5 (antibody, V domains shown) VH: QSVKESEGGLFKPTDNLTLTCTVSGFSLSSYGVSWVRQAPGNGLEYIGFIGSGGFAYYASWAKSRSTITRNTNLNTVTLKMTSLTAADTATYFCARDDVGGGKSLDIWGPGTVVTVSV VL: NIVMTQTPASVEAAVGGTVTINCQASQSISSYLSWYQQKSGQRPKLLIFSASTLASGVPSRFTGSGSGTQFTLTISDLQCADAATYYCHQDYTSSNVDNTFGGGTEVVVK	0.402
10C8 (antibody, V domains shown) VH: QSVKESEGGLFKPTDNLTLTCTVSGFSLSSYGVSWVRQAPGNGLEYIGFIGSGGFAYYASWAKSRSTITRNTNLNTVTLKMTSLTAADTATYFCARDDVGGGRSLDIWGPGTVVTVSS VL: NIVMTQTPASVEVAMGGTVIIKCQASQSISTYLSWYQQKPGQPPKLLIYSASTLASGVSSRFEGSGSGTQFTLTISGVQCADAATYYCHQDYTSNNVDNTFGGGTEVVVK	0.277
3-3F5 (antibody, V domains shown) VH: QSVKESEGGLFKPTDTLTLTCTVSGFSLNDYGVSWVRQAPGNGLEWIGAIGSSGVAWYANWAKGRSTITRNTNLNTVTLKMASLTAADTATYFCARDRDYGYRADDATSGMDLWGPGTLVTVSS VL: AYDMTQTPASVEAAVGGTVTIKCQASESIGNALAWYQQKPGQPPKLLIYDASDLASGVPSRFKGSGSGTQFTLTISGVECADAATYYCQQGDSHNNVDNIFGGGTEVVVK	0.0081
